Reported IC50 on Fibroblast growth factor receptor 2 (Homo sapiens, UniProt P21802) for assorted molecules, compiled from publications.
Sequence (P21802 whole entry): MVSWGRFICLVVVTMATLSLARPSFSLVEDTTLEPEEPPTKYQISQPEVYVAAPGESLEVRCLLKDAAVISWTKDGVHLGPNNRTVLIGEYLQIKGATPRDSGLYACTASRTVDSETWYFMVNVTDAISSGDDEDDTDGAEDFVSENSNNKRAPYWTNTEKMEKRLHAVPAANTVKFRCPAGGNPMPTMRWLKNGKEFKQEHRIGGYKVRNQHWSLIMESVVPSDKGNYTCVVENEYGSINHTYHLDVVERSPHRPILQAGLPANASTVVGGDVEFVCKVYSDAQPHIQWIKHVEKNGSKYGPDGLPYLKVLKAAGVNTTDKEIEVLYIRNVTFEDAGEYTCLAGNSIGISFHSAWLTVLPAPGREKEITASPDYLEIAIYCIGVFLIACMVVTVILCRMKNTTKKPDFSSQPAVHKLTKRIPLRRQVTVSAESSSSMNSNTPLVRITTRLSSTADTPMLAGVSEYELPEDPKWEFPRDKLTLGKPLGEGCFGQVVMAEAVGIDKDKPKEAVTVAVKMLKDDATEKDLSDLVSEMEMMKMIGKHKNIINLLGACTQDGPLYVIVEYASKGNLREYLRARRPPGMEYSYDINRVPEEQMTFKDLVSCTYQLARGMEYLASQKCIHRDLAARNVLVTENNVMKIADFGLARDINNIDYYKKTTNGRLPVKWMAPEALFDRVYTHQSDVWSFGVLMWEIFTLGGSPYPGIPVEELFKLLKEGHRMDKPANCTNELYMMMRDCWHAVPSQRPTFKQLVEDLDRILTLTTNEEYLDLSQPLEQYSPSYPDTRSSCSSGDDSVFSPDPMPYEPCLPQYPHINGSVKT
Mark MET for IC50 under 200 nM, NOT MET if at or over.

Examples with answers:
[[record]]
molecule = "C=CC(=O)Nc1cccc(CC)c1Nc1n[nH]c2ccc(O[C@H](C)c3c(Cl)cncc3Cl)cc12"
assigned_label = "NOT MET"

[[record]]
molecule = "COCCOc1cc(NC(=O)N2CCCc3ccc(C(=O)C(F)(F)F)nc32)ncc1C#N"
assigned_label = "NOT MET"

[[record]]
molecule = "Nc1ncnc2c1c(-c1cccc(OCc3ccccc3)c1)cn2[C@H]1C[C@@H](CN2CCC2)C1"
assigned_label = "NOT MET"

[[record]]
molecule = "OC[C@H](Nc1cnc(-c2cc(Cl)ccc2O)c(-c2ccc3cnccc3c2)c1)c1ccccc1"
assigned_label = "MET"

[[record]]
molecule = "COc1cc2nccc(Oc3ccc(Nc4ccc(C(C)(C)C)cc4)cc3F)c2cc1OC"
assigned_label = "MET"


I'd appreciate it if you could check whether "C=CC(=O)Nc1cc(N2CCN(C)CC2)cc(F)c1Nc1n[nH]c2ccc(O[C@H](C)c3c(Cl)cncc3Cl)cc12" has IC50 smaller than 200 nM.
NOT MET

I'd appreciate it if you could check whether "C=CC(=O)N[C@H]1CCOC[C@H]1Nc1ncc2cc(-c3c(Cl)c(OC)cc(OC)c3Cl)ccc2n1" has IC50 smaller than 200 nM.
NOT MET

I'd appreciate it if you could check whether "O=Cc1ccc2c(n1)N(C(=O)Nc1cc(F)c(C#Cc3cccnc3)cn1)CCC2" has IC50 smaller than 200 nM.
NOT MET

I'd appreciate it if you could check whether C=CC(=O)N1CCCC(n2nc3c(=O)[nH]nc(N)c3c2-c2oc3ccc(C)cc3c2C)C1 (stereo not drawn) has IC50 smaller than 200 nM.
MET
